The measurements presented in this section are drawn from ChEMBL document CHEMBL1159261.

- Test system: A549
- assay-info: Cytotoxicity against human A549 cells after 7 days by MTT assay
- Type: functional
- assay-conditions: A549, 168 h, read-out: ED50 (the source's name)
quantity-name: EC50 (µg/mL)
Report as a plain number; the unit µg/mL is understood.

Reference set (3 entries):
CCCCCCCCCCCC[C@@H](O)[C@H]1CC[C@H]([C@H](O)CC[C@@H]2C[C@@H](CCCCC[C@@H](O)CC3=C[C@H](C)OC3=O)OC(C)(C)O2)O1 = 0.00376
CCCCCCCCCCCC[C@@H](O)[C@H]1CC[C@H]([C@H](O)CCC[C@H](O)[C@@H](O)CCCCC[C@@H](O)CC2=C[C@H](C)OC2=O)O1 = 0.308
CCCCCCCCCCCC[C@@H](O)[C@H]1CC[C@H]([C@H](O)CC[C@@H](O)C[C@H](O)CCCCC[C@@H](O)CC2=C[C@H](C)OC2=O)O1 = 0.0909

Query block: Look up EC50: CCCCCCCCCCCC[C@@H](O)[C@H]1CC[C@H]([C@H](O)CCC[C@@H]2OC(C)(C)O[C@@H]2CCCCC[C@@H](O)CC2=C[C@H](C)OC2=O)O1
Result block: 0.0698
